biological target: UniProt Q9Y5Y4; test: Human CRTH2 Receptor Binding Assay (whole cell, [3H]ramatroban competition); conditions: CHO-K1 cells expressing human CRTH2 and G-alpha16; 20 nM [3H]ramatroban; 1 hour, room temperature
Sequence (Q9Y5Y4 whole entry): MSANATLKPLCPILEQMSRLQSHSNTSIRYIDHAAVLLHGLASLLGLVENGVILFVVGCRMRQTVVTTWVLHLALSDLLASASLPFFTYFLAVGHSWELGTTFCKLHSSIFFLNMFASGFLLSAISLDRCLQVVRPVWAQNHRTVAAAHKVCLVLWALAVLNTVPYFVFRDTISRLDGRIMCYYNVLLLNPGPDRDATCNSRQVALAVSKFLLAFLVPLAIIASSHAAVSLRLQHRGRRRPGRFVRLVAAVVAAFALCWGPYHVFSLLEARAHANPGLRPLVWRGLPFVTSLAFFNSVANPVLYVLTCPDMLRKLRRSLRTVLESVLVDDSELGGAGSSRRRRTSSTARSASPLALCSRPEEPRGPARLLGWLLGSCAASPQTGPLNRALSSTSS
measuredProperty: IC50 (nM)

Exam item: If you can, please state the reported IC50 value of O=C(O)Cn1ncc2c1CCCC2NS(=O)(=O)c1ccc(-c2cccc([N+](=O)[O-])c2)cc1 (stereo not shown) [Example 10-23a] .
Marked response: 238

Exam item: If you can, please state the reported IC50 value of O=C(O)Cn1ncc2c1CCCC2NS(=O)(=O)c1cc(Oc2ccccc2)cc(C(F)(F)F)c1 (stereo not shown) [Example 5-4a] .
Marked response: 35.9

Exam item: If you can, please state the reported IC50 value of Cc1cc(S(=O)(=O)N(C)[C@@H]2CCCc3c2cnn3CC(=O)O)ccc1Oc1ccc(F)cc1 [Example 9-35a] .
Marked response: 17.1

Exam item: If you can, please state the reported IC50 value of CN([C@@H]1CCCc2c1cnn2CC(=O)O)S(=O)(=O)c1cnc(Oc2cccc(Cl)c2)c(Br)c1 [Example 6-8a] .
Marked response: 11.9

(a) CN([C@@H]1CCCc2c1cnn2CC(=O)O)S(=O)(=O)c1ccc(Oc2ccc(C(N)=O)cc2)c(Cl)c1 [Example 9-36a]
(b) O=C(O)CCn1ncc2c1CCC[C@H]2NS(=O)(=O)c1ccc(Oc2ccccc2Cl)c(Cl)c1 [Example 5-7a]
Exam item: Which is greater in IC50, the first item a or the second item b ? Please identify the chosen entry by its label.
Marked response: b
